Ref: paper PMC12064818

Subject of test: FLuc-C-NLuc (firefly luciferase) (Photinus pyralis, UniProt P08659, form not given/L550V)
Experiment: SDR assay, FLuc-C-NLuc
Cond: Log[Compound], M -4.48; absence of ATP
Lab note: compare SDR against 10. Equal or greater, write yes. Smaller, write no.

CC(CNC(=O)C1CCN(C(=O)c2ncn3c2COC(c2ccccc2)C3)CC1)c1ccccc1 (centres unmarked); yes
CC(NC(=O)C1CCN(C(=O)c2ncn3c2COC(c2ccc(F)cc2)C3)CC1)c1ccc(F)cc1 (centres unmarked); no
COc1ccc(NC(=O)C2CCN(C(=O)c3ncn4c3COC(c3ccccc3)C4)CC2)cc1Cl (centres unmarked); yes

Next, consider the following compound.
Has CC1CCC(NC(=O)C2CCN(C(=O)c3ncn4c3COC(c3ccc(Cl)cc3)C4)CC2)CC1 (centres unmarked) a recorded SDR greater than or equal to 10?
no

---

Subject of test: FLuc-C-HiBiT (Photinus pyralis, UniProt P08659)
Construct: firefly luciferase with C-terminal HiBiT tag, E. coli expressed
Sequence (P08659 whole entry, looked up): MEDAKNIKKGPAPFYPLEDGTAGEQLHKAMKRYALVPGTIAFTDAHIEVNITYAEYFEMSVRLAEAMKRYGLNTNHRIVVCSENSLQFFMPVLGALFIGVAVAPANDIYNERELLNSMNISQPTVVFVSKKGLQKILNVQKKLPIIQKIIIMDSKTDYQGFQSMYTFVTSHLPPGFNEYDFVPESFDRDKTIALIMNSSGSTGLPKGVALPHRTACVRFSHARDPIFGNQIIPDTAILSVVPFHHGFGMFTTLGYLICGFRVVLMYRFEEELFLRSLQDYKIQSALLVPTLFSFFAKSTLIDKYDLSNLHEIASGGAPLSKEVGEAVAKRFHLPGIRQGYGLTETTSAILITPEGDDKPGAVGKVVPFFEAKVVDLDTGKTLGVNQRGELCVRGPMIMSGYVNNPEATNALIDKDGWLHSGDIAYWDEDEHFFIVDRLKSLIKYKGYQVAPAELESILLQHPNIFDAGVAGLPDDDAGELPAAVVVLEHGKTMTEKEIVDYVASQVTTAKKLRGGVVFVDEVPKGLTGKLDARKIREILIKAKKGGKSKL
Experiment: biochemical
Cond: enzyme activity, 10 uM ATP; read-out: IC50 or SDR50 (mM) / FLuc E
Simple rule here: IC50 less than 0.002 mM is 1, otherwise 0.

Here's what some known entries look like.
COCCN1CCC2(C1)CN(C)c1ccc(C(=O)Nc3ccccc3)cc12 (stereo not drawn); 1
Cc1cnc(CCNC(=O)Nc2ccc3c(c2)OCCO3)n1C1CC1; 0
COc1ccc(NC(=O)Nc2cccc(-c3ccc(N4CCOCC4)nn3)c2)cc1Cl; 1

Hello, is IC50 of the following compound strictly smaller than 0.002 mM? O=C(Nc1ccc(F)cc1)C1CCN(C(=O)c2ncn3c2COC(c2ccccc2)C3)CC1 (stereo not drawn)
1

Answer whether the compound CC(C)c1ccc(NC(=O)O[C@@H]2CO[C@H]3[C@@H]2OC[C@@H]3N[S+](=O)([O-])c2cccs2)cc1 has IC50 strictly less than 0.002 mM
0

Does the reported IC50 of O=C1N(c2ccccc2)C[C@H]2CN(Cc3ccccc3)CCN12 stay below 0.002 mM?
0

# strict comparison: is reported IC50 < 0.002 mM? input = COc1ccc(NC(=O)Nc2ccc(C)n(CC(=O)O)c2=O)cc1
0

In plain terms, does c1ccc(CNc2nc(-c3ccccc3)no2)cc1 come in under 0.002 mM for IC50?
0

IC50 strictly < 0.002 mM for this compound? COc1ccc(-c2ncc3c(n2)OCCN(CC2CC2)C3=O)cc1
0

---

Kindly state IC50 for each of the entries shown.
Subject of test: FLuc-C-HiBiT (Photinus pyralis)
Construct: firefly luciferase with C-terminal HiBiT tag, E. coli expressed
Experiment: biochemical
Cond: enzyme activity, 10 uM ATP; read-out: IC50 or SDR50 (mM) / FLuc E
Give bare numbers, in mM.

For each of the items listed, what is its IC50?
1. CCN1c2cc(C(=O)Nc3ccc4c(c3)OCCO4)ccc2C(=O)N2CCCC21 (stereo not drawn)
2. O=C(O)c1cccc2c1CCN2C(=O)c1ccccc1
3. CN1CCNc2cc(Nc3ccc(F)cc3)ncc2C1

[0.0111, 0.00394, 0.0202]

For each of the compounds below, note its IC50.
1. COc1ccc2cc(C3CN(C(=O)Cc4ccc(O)cc4)CCO3)ccc2c1 (stereo not drawn)
2. Cc1ccc(C(=O)Nc2ccc3oc(-c4cccnc4)nc3c2)c(Cl)c1
3. CC(=O)NC1(C)CN(Cc2ccc(-c3ccc(Oc4ccccc4)cc3)s2)C1

1: 0.00989; 2: 0.0014; 3: 0.0255

# return IC50 for each item in the list
1. Cc1ccc(-c2nc(C(=O)N3CCN(c4ccccc4)CC3)no2)cc1
2. CC(C)COc1ccc(C(=O)Nc2onc3c2CCCC3)cc1
3. Cc1cccc(NC(=O)C2CCN(C(=O)c3ncn4c3COC(c3ccccc3)C4)CC2)c1 (stereo not drawn)
4. O=C(NCc1ccc(F)cc1)Nc1cccc(-c2ccc(N3CCOCC3)nn2)c1
5. O=C(Nc1cccc(-c2nc3ccccc3[nH]2)c1)c1ccccc1F
6. CC(=O)NC1(C)CCN(Cc2ccc(-c3ccc4c(ccn4C)c3)cc2)C1 (stereo not drawn)

0.0111
0.00197
0.00248
0.00176
0.014
0.00718

---

Subject of test: P. pyralis FLuc (Photinus pyralis)
Sequence (P08659 whole entry): as the sequence (P08659 whole entry, looked up) above
Experiment: FLuc enzymatic luminescence assay, P. pyralis FLuc
Format: biochemical
Cond: FLuc enzymatic assay
Metric name: pIC50 or pSDR50 FLuc E
Give bare numbers.

See these solved cases before continuing.
O=C(NCc1ccc(F)c(Cl)c1)C1CCN(C(=O)c2ncn3c2COC(c2ccccc2)C3)CC1 (centres unmarked) [NCGC00449790-01]; 5.46
O=C(NCc1ccco1)C1CCN(C(=O)c2ncn3c2COC(c2ccccc2)C3)CC1 (centres unmarked) [NCGC00449791-01]; 5.56
CCCCNC(=O)C1CCN(C(=O)c2ncn3c2COC(c2ccc(F)cc2)C3)CC1 (centres unmarked) [NCGC00449812-01]; 4.91
O=C(NCc1ccccc1)C1CCN(C(=O)c2ncn3c2COC(c2ccccc2)C3)CC1 (centres unmarked) [NCGC00449773-01]; 5.56

For every item below, please supply its pIC50 or pSDR50 FLuc E.
1. COc1ccc(CNC(=O)C2CCN(C(=O)c3ncn4c3COC(c3ccccc3)C4)CC2)cc1 (centres unmarked) [NCGC00449778-01]
2. CCOc1ccccc1CNC(=O)C1CCN(C(=O)c2ncn3c2COC(c2ccccc2)C3)CC1 (centres unmarked) [NCGC00449779-01]
3. CCCCNC(=O)C1CCN(C(=O)c2ncn3c2COC(c2ccccc2)C3)CC1 (centres unmarked) [NCGC00449772-01]
4. O=C(NCc1cc(F)ccc1F)C1CCN(C(=O)c2ncn3c2COC(c2ccccc2)C3)CC1 (centres unmarked) [NCGC00449804-01]

5.01
5.21
5.11
5.41

---

Subject of test: FLuc-C-NLuc (firefly luciferase) (Photinus pyralis, UniProt P08659, form not given/L550V)
Experiment: SDR assay, FLuc-C-NLuc
Cond: 1 nM FLuc-C-NLuc; normalized activity; Log [Compound], M -6.87
Metric name: SDR + 10 mM ATP
Numbers only.

Solved entries (count: 3):
O=C(O)CCSc1nnc(-c2ccc(Cl)cc2Cl)o1; 31.3
Fc1ccc(-c2cn3cc(Cc4ccccc4)sc3n2)cc1; 5.8
COc1ccc(-c2nc(-c3ccc(C(=O)O)cc3)no2)cc1; 49.4

Please state, for each entry, its recorded SDR + 10 mM ATP.
1. CC1CCCN(c2ncnc3c2cnn3-c2ccccc2)C1 (centres unmarked)
2. CC(CNC(=O)C1CCN(C(=O)c2ncn3c2COC(c2ccccc2)C3)CC1)c1ccccc1 (centres unmarked)
3. Cc1ccc(-n2ncc3c(N4CCCCCC4)ncnc32)cc1

1. 5.5
2. 5.0
3. 6.9

Please state, for each entry, its recorded SDR + 10 mM ATP.
1. CNC(=O)c1cccc2c1CCN2C(=O)Nc1ccc(C)cc1
2. O=C(O)c1cccc2c1CCN2C(=O)Nc1ccc(F)cc1

39.3
67.3

---

Give % Activity (max response, - ATP) for every item shown.
Subject of test: FLuc-C-HiBiT (firefly luciferase) (Photinus pyralis, UniProt P08659, form not given/L550V)
Sequence (P08659 2-550 L550V, form open): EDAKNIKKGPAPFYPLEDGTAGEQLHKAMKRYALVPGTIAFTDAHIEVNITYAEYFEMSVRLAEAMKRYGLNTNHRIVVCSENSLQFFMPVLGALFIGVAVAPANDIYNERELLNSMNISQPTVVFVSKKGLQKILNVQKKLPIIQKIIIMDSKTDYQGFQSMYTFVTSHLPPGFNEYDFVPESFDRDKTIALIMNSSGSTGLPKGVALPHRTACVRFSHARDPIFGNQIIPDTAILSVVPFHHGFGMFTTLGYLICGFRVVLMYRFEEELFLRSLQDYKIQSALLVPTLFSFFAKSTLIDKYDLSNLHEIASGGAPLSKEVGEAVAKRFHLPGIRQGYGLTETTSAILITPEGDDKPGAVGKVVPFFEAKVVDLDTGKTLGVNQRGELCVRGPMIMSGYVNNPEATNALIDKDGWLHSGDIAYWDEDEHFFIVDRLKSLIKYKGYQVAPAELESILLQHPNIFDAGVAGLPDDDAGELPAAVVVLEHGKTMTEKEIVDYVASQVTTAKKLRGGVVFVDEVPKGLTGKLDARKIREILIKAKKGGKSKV
Experiment: SDR assay, FLuc-C-HiBiT
Cond: - ATP; SDR max. response; clade S
Give bare numbers, in %.

Cc1ccc(C2Cn3cnc(C(=O)N4CCC(C(=O)NCc5cc(F)ccc5F)CC4)c3CO2)cc1 (stereo not shown) [NCGC00449900-01]; 0.00
COc1ccc(C2Cn3cnc(C(=O)N4CCC(C(=O)NCc5cccc(C)c5)CC4)c3CO2)cc1 (stereo not shown) [NCGC00449879-01]; 0.00
COc1ccc(CNC(=O)C2CCN(C(=O)c3ncn4c3COC(c3ccc(C)cc3)C4)CC2)cc1 (stereo not shown) [NCGC00449887-01]; 0.00

Hi! Can you tell me % Activity (max response, - ATP) for each of these compounds?
1. CCc1ccc(CNC(=O)C2CCN(C(=O)c3ncn4c3COC(c3ccccc3)C4)CC2)cc1 (stereo not shown) [NCGC00449775-01]
2. O=C(NC1CC1)C1CCN(C(=O)c2ncn3c2COC(c2ccc(F)cc2)C3)CC1 (stereo not shown) [NCGC00449806-01]
3. Cc1ccc(C2Cn3cnc(C(=O)N4CCC(C(=O)NCc5ccccc5F)CC4)c3CO2)cc1 (stereo not shown) [NCGC00449888-01]
4. COc1ccc(NC(=O)C2CCN(C(=O)c3ncn4c3COC(c3ccccc3)C4)CC2)cc1Cl (stereo not shown) [NCGC00449919-01]
5. COc1ccc(C2Cn3cnc(C(=O)N4CCC(C(=O)NC5CCCCCC5)CC4)c3CO2)cc1 (stereo not shown) [NCGC00449862-01]

[0.00, 0.00, 0.00, 38.71, 0.00]

Report % Activity (max response, - ATP) for every entry below.
1. Cc1ccc(NC(=O)C2CCN(C(=O)c3ncn4c3COC(c3ccc(F)cc3)C4)CC2)c(F)c1 (stereo not shown) [NCGC00449944-01]
2. O=C(NCCC1=CCCCC1)C1CCN(C(=O)c2ncn3c2COC(c2ccccc2)C3)CC1 (stereo not shown) [NCGC00449771-01]
3. O=C(NC1CC1)C1CCN(C(=O)c2ncn3c2COC(c2ccc(Cl)cc2)C3)CC1 (stereo not shown) [NCGC00449842-01]
4. O=C(NCc1ccc(F)cc1)C1CCN(C(=O)c2ncn3c2COC(c2ccc(Cl)cc2)C3)CC1 (stereo not shown) [NCGC00449852-01]
5. Cc1ccc(C2Cn3cnc(C(=O)N4CCC(C(=O)NCc5ccco5)CC4)c3CO2)cc1 (stereo not shown) [NCGC00449893-01]
6. COc1ccc(C)cc1NC(=O)C1CCN(C(=O)c2ncn3c2COC(c2ccc(F)cc2)C3)CC1 (stereo not shown) [NCGC00449936-01]
7. CCCCNC(=O)C1CCN(C(=O)c2ncn3c2COC(c2ccc(F)cc2)C3)CC1 (stereo not shown) [NCGC00449812-01]

[7.55, 0.00, 0.00, 0.00, 0.00, -5.78, 0.00]

I have this compound here, CC(C)NC(=O)C1CCN(C(=O)c2ncn3c2COC(c2ccccc2)C3)CC1 (stereo not shown) [NCGC00449767-01] , and I need its recorded % Activity (max response, - ATP).
0.00
